test system: Acinetobacter baumannii; test: Antibacterial activity against Acinetobacter baumannii BAA 1605 assessed as reduction in bacterial growth incubated for 16 to 18 hrs by microtiter plate assay; assay type: functional; conditions: time 16-18 hrs
measure: MIC

Query: What measured MIC goes with `COc1ccc(/C=C/C(=O)c2ccc(Nc3nc4ccccc4o3)cc2)c(OC)c1OC` ?
Response: > 64 µg/mL

Query: What measured MIC goes with `O=C(/C=C/c1cccc(Cl)c1)c1ccc(Nc2nc3ccccc3o2)cc1` ?
Response: > 64 µg/mL

Query: What measured MIC goes with `Cc1ccc2oc(Nc3ccc(C(=O)/C=C/c4ccc([N+](=O)[O-])o4)cc3)nc2c1` ?
Response: > 64 µg/mL

====

assay: Selectivity index, ratio of CC50 for African green monkey Vero cells to MIC for Mycobacterium tuberculosis H37Rv ATCC 27294; type: toxicity; conditions: read-out: Selectivity Index
Quick reference for selectivity ratio among some compounds
Form rule: numeric answer, no unit written next to it.

Worked cases, selectivity ratio given:
[[record]]
smiles_string = "Cc1ccc2oc(Nc3ccc(C(=O)/C=C/c4ccc([N+](=O)[O-])o4)cc3)nc2c1"
numeric_value = 80

[[record]]
smiles_string = "O=C(/C=C/c1ccc([N+](=O)[O-])o1)c1ccc(Nc2nc3ccccc3o2)cc1"
numeric_value = 40

[[record]]
smiles_string = "O=C(/C=C/c1ccc([N+](=O)[O-])o1)c1ccc(Nc2nc3cc(Cl)ccc3o2)cc1"
numeric_value = 160


As a next step, examine the compound that follows.
Query: What measured selectivity ratio goes with `O=C(/C=C/c1ccc([N+](=O)[O-])o1)c1cccc(Nc2nc3ccccc3o2)c1` ?
Response: 80

====

tested on: Mycobacterium tuberculosis; test: Antimycobacterial activity against Mycobacterium tuberculosis H37Rv ATCC 27294 assessed as inhibition of bacterial growth measured after 7 days by resazurin microtitre assay; type: functional; details: H37Rv ATCC 27294, 168 h, time 7 day
Quick reference for MIC among some compounds
A number alone suffices; assume µg/mL.

[[record]]
compound = "O=C(/C=C/c1ccc([N+](=O)[O-])o1)c1ccc(Nc2nc3cc([N+](=O)[O-])ccc3o2)cc1"
target = "Mycobacterium tuberculosis"
numeric_value = 0.03

[[record]]
compound = "COc1cc(C2CC(c3ccccc3)=NN2C(C)=O)cc2nc(N)oc12 (stereo not given)"
target = "Mycobacterium tuberculosis"
numeric_value = 0.625

[[record]]
compound = "COc1ccc(/C=C/C(=O)c2ccc(Nc3nc4ccccc4o3)cc2)c(OC)c1OC"
target = "Mycobacterium tuberculosis"
numeric_value = 16

[[record]]
compound = "CC(=O)N1N=C(c2ccccc2)CC1c1cc(Cl)c2oc(S)nc2c1 (stereo not given)"
target = "Mycobacterium tuberculosis"
numeric_value = 1.25


As a next step, examine the compound that follows.
Query: What measured MIC goes with `COc1ccc(/C=C/C(=O)c2ccc(Nc3nc4ccccc4o3)cc2)cc1` ?
Response: 32

====

Quick reference for MIC among some compounds
test system: Mycolicibacterium fortuitum; experiment: Antimycobacterial activity against Mycobacterium fortuitum ATCC 6841 assessed as inhibition of bacterial growth after 48 hrs by resazurin microtitre assay; assay type: functional

Worked cases, MIC given:
[[record]]
smiles_string = "Cc1ccc(/C=C/C(=O)c2ccc(Nc3nc4ccccc4o3)cc2)cc1"
measure = "MIC"
result = "> 64 µg/mL"

[[record]]
smiles_string = "COc1ccc(/C=C/C(=O)c2ccc(Nc3nc4ccccc4o3)cc2)c(OC)c1"
measure = "MIC"
result = "> 64 µg/mL"

[[record]]
smiles_string = "O=C(/C=C/c1ccccn1)c1ccc(Nc2nc3ccccc3o2)cc1"
measure = "MIC"
result = "> 64 µg/mL"

[[record]]
smiles_string = "CC(C)(C)c1ccc2oc(Nc3ccc(C(=O)/C=C/c4ccc([N+](=O)[O-])o4)cc3)nc2c1"
measure = "MIC"
result = "> 64 µg/mL"


Query: What measured MIC goes with `O=C(/C=C/c1ccc([N+](=O)[O-])o1)c1ccc(Nc2nc3cc(Cl)ccc3o2)cc1` ?
Response: > 64 µg/mL

Query: What measured MIC goes with `COc1ccc(C(=O)/C=C/c2cc(OC)c(OC)c(OC)c2)cc1Nc1nc2ccccc2o1` ?
Response: > 64 µg/mL

Query: What measured MIC goes with `COc1cc(/C=C/C(=O)c2ccc(Nc3nc4cc(C)ccc4o3)cc2)cc(OC)c1OC` ?
Response: > 64 µg/mL

Query: What measured MIC goes with `O=C(/C=C/c1ccc([N+](=O)[O-])cc1)c1ccc(Nc2nc3ccccc3o2)cc1` ?
Response: > 64 µg/mL

Query: What measured MIC goes with `O=C(/C=C/c1cccc(Cl)c1)c1ccc(Nc2nc3ccccc3o2)cc1` ?
Response: > 64 µg/mL

Query: What measured MIC goes with `COc1ccc(/C=C/C(=O)c2ccc(Nc3nc4ccccc4o3)cc2)c(OC)c1OC` ?
Response: > 64 µg/mL

Query: What measured MIC goes with `O=C(/C=C/c1ccccc1Br)c1ccc(Nc2nc3ccccc3o2)cc1` ?
Response: > 64 µg/mL

Query: What measured MIC goes with `O=C(/C=C/c1ccco1)c1ccc(Nc2nc3ccccc3o2)cc1` ?
Response: > 64 µg/mL

Query: What measured MIC goes with `Cc1ccc2oc(Nc3ccc(C(=O)/C=C/c4ccc([N+](=O)[O-])o4)cc3)nc2c1` ?
Response: > 64 µg/mL

Query: What measured MIC goes with `COc1ccc(OC)c(/C=C/C(=O)c2ccc(Nc3nc4ccccc4o3)cc2)c1` ?
Response: > 64 µg/mL

Query: What measured MIC goes with `COc1ccc(/C=C/C(=O)c2ccc(Nc3nc4ccccc4o3)cc2)cc1` ?
Response: > 64 µg/mL

Query: What measured MIC goes with `COc1cc(/C=C/C(=O)c2ccc(Nc3nc4cc(C(C)(C)C)ccc4o3)cc2)cc(OC)c1OC` ?
Response: > 64 µg/mL
